readout-type: melting point

- smi: "CCc1ccc(Oc2cnc[nH]c2=O)cc1"
  readout-type: "melting point"
  result: "144 to 146 °C"
- smi: "C=CCc1ccc(-c2nc3c(N[C@H]4[C@@H](C(N)=O)[C@@H]5C=C[C@H]4C5)c(Cl)cnc3[nH]2)c(OC)c1"
  readout-type: "melting point"
  result: "123 to 126 °C"

[Q] Name the recorded melting point for Cn1c(=O)c(-c2ccc(Cl)cc2Cl)cc2c3cc(-c4c[nH]nc4N)ccc3n(C)c21 .
[A] 240 to 245 °C

* * *

Below is a list of entries, each paired with its recorded melting point value.

- compound: "O=C(O)C=C[C@H](Cc1ccc(-c2ccccc2)cc1)NCP(=O)(O)O"
  melting point: "231 to 233 °C"
- compound: "O=C(Cc1ccc(C(F)(F)F)cc1)c1ccccc1"
  melting point: "143 to 144 °C"

[Q] Name the recorded melting point for Cc1cc(C)c(-c2cn(C)c3nc(NC(=O)N(C)C)n(C)c(=O)c23)c(C)c1 .
[A] 221 to 223 °C

[Q] Name the recorded melting point for Cc1nccn1C(=O)Nc1ccccc1 .
[A] 205 to 207 °C

[Q] Name the recorded melting point for CCCCCCCCCCc1ccnc(C(=O)NCC(=O)O)c1 .
[A] 79 to 81 °C

[Q] Name the recorded melting point for CCOc1cc2c(Nc3cc(OC)c(Cl)cc3Cl)c(C#N)cnc2cc1F .
[A] 184 to 186 °C

[Q] Name the recorded melting point for Nc1ccc(-c2cc3c(Nc4ccc(Cl)cc4F)ncnc3o2)cc1 .
[A] 229 to 232 °C

[Q] Name the recorded melting point for COCn1c(-c2ccncc2)c(C)c(CO)c1-c1ccncc1 .
[A] 181 to 183 °C

The values you see were collected from a melting point compilation (Tetko et al.; mined from patent text by program, amines drawn as free bases though some values may be those of a salt).
